Test system: HeLa
Assay: Growth inhibition of human HeLa cells incubated for 72 hrs by MTT assay
Format: functional
Could you please mark true (1) for values of GI50 below 9 nM and false (0) for values at or above it?

Compound smiles | Class name
O=C(c1ccccc1)n1ccc2c3c(=O)cc(-c4ccccc4)[nH]c3ccc21 | true (1)
O=C(Oc1cc(-c2ccccc2)nc2ccc3[nH]ccc3c12)c1ccccc1F | false (0)
O=C(c1ccccc1)n1ccc2c3c(=O)cc(-c4cccc(F)c4)[nH]c3ccc21 | false (0)
CCn1ccc2c3c(=O)cc(-c4cccc(F)c4)[nH]c3ccc21 | true (1)
O=C(c1ccccc1F)n1ccc2c3c(=O)cc(-c4ccccc4)[nH]c3ccc21 | false (0)
CCn1ccc2c3c(=O)cc(-c4ccc(F)cc4)[nH]c3ccc21 | false (0)
CCn1ccc2c3c(=O)cc(-c4ccccc4F)[nH]c3ccc21 | true (1)

stdin: Given the entry CCn1ccc2c3c(=O)cc(-c4ccccc4)[nH]c3ccc21 , would its reported GI50 be below 9 nM?
stdout: false (0)

---

Biological target: Tubulin (Bos taurus, UniProt Q6B856+Q862L2+Q862F3)
Assay: Inhibition of bovine brain tubulin polymerization preincubated for 15 mins followed by GTP addition and measured for 20 mins by turbidimetry-based spectrophotometric method
Could you please mark Fulfilled for values of IC50 below 0.6 µM and Not fulfilled for values at or above it?

Worked cases, answers included:
Compound smiles | Class name
O=C(c1ccccc1F)n1ccc2c3c(=O)cc(-c4ccccc4)[nH]c3ccc21 | Not fulfilled
O=C(c1ccccc1)n1ccc2c3c(=O)cc(-c4cccc(F)c4)[nH]c3ccc21 | Fulfilled
CCn1ccc2c3c(=O)cc(-c4ccc(F)cc4)[nH]c3ccc21 | Not fulfilled
CCn1ccc2c3c(=O)cc(-c4ccccc4F)[nH]c3ccc21 | Not fulfilled

Now let's try a different one.
stdin: Given the entry CCn1ccc2c3c(=O)cc(-c4ccccc4)[nH]c3ccc21 , would its reported IC50 be below 0.6 µM?
stdout: Fulfilled

---

Assay: Metabolic stability in human liver microsomes assessed as parent compound decline at 10 uM incubated for 60 mins in absence of NADPH by HPLC analysis
Format: ADME, Microsome
Settings: read-out: Drug degradation
Kindly supply the reported metabolised at 1 h, 10 µM values for the records listed here.
Give bare numbers, in %.

Use the examples below as a reference point.
Compound smiles | metabolised at 1 h, 10 µM, %
O=C(c1ccccc1)n1ccc2c3c(=O)cc(-c4cccc(F)c4)[nH]c3ccc21 | 20
O=C(c1ccccc1F)n1ccc2c3c(=O)cc(-c4ccccc4)[nH]c3ccc21 | 20

// next entry
metabolised at 1 h, 10 µM measured on O=C(c1ccccc1)n1ccc2c3c(=O)cc(-c4ccccc4)[nH]c3ccc21 = 20

---

Kindly supply the reported GI50 at 72 h values for the records listed here.
Experiment: Growth inhibition of PHA-stimulated human PBL cells incubated for 72 hrs by MTT assay
Assay type: cell-based
Conditions: PHA-stimulated PBL cells (peripheral blood lymphocytes)

Compound smiles | Assay result
O=C(c1ccccc1)n1ccc2c3c(=O)cc(-c4ccccc4)[nH]c3ccc21 | 2.7 µM
CCn1ccc2c3c(=O)cc(-c4ccccc4F)[nH]c3ccc21 | 15.2 µM
CCn1ccc2c3c(=O)cc(-c4cccc(F)c4)[nH]c3ccc21 | 10.8 µM
O=C(c1ccccc1)n1ccc2c3c(=O)cc(-c4cccc(F)c4)[nH]c3ccc21 | 17.6 µM

// next entry
GI50 at 72 h measured on CCn1ccc2c3c(=O)cc(-c4ccccc4)[nH]c3ccc21 = 7.6 µM

---

Kindly supply the reported GI50 values for the records listed here.
Assay: Growth inhibition of human DND41 cells incubated for 72 hrs by MTT assay
Format: functional
Settings: DND41, 72 h
One number for each entry, in nM.

Use the examples below as a reference point.
Compound smiles | Measurement name | Unit annotation | Assay result
CCn1ccc2c3c(=O)cc(-c4cccc(F)c4)[nH]c3ccc21 | GI50 | nM | 0.13
CCn1ccc2c3c(=O)cc(-c4ccccc4F)[nH]c3ccc21 | GI50 | nM | 0.26
O=C(Oc1cc(-c2ccccc2)nc2ccc3[nH]ccc3c12)c1ccccc1F | GI50 | nM | 2420

GI50 measured on O=C(c1ccccc1F)n1ccc2c3c(=O)cc(-c4ccccc4)[nH]c3ccc21 = 240
